substrate: F protein of hMPV B virus (human metapneumovirus subtype B); assay: cell-based or functional assay
For each record, write down the corresponding PRNT IC50.

State its PRNT IC50 for this binder: M3E01 (antibody, V domains shown) VH: EVQLVESGGGLIQPGGSLRLSCTASGFTVSSKYMSWVRQAPGKGLEWVSLIYDGGSTYYADSVKGRFLISRDNAKNTLYLQMHSLRAEDTAVYYCARDRGTYSGYDWYSGMDVWGQGTTVTVSS VL: DIQLTQSPSFLSASVGDRITITCRASQGISSYLAWYQQKPGKAPKLLIYAASTLQSGVPSRFSGSGSGTEFNVTISSLQPEDFATYYCQQLKSYPGTFGQGTKVEIE
> 10 µg/mL

For the binder M3D06 (antibody, V domains shown) VH: EVQLVESGGGLVQPGGSLRLSCAASGFPFNFYWMHWVRQAPREGLVWVSRINNDGSSPNYADSVWGRFTISRDNAKNTLYLQMHSLRAEDTAVYYCARAARFGDYVDQWGQGTLVTVSS VL: AIQLTQSPSSLSASMGDRVTITCRASQGISSAFAWYQQKPGKAPKLLIYDASTLESGVPSRFSGSGSGTDFTLTISSLQPEDFATYYCQQFNSYPLTFGGGTKVEIK , give its measured PRNT IC50 value.
> 10 µg/mL

Please give the documented PRNT IC50 of M4A11 (antibody, V domains shown) VH: QVQLVQSGSEVKRPGASVRVSCTASGYTFSNYGVSWMRQAPGHGLEWMGWISTHNQNVRYSQNFQGRVTVTTDTSTSTAYMDLRGLKPDDTAVYFCARMIPVGTTYTPYWTGWTPGGMDIWGQGTTVIVSS VL: QSVLTQPPSASGTPGQRVIMSCSGTTSNIGRNFVYWYQQLPKEAPTLLIYGNDQRPAGVPDRFSGSTSGTSASLAISGLRSGDEADYYCATWDDSVNGPVFGGGTKLTVL
> 10 µg/mL
